Source of measurements: ChEMBL document CHEMBL1157539

System: HepG2
Assay: GSK_TCMDC: Percent inhibition of human HepG2 cell line. Test compounds present at 10uM.
Format: functional
Reported property: Inhibition (%)
Kindly answer with a numeric value in %, unit omitted.

> print(dat)
                                   compound  tested.system  reported.property  assay.result
1  Cc1cccc2nc(-c3ccc(-c4cccc(NC(=O)CCc5c[nH]cn5)c4)s3)[nH]c12          HepG2         Inhibition             2
2  Cc1cc(O)c(C(C)C)cc1C1(c2cc(C(C)C)c(O)cc2C)OC(=O)c2ccccc21          HepG2         Inhibition             8
3  CCCCSc1c(CNCCCCCCNCc2ccc3ccccc3c2SCCCC)ccc2ccccc12.CS(=O)(=O)O          HepG2         Inhibition            99
4  CCOc1cc(C(=O)NCc2ccc(Cl)c(Cl)c2)ccc1-c1nc2cc(Cl)ccc2[nH]1          HepG2         Inhibition            10
5  Cc1ccc(NC(=O)c2ccc(NCCCN(C)Cc3ccccc3)c([N+](=O)[O-])c2)cc1F          HepG2         Inhibition            12
6     COc1ccc2c(=NN=Cc3cccnc3)cc(C)[nH]c2c1          HepG2         Inhibition             0
7  CCCc1cc(N2CCC(N3CCCC3)CC2)nc(Nc2ccc(Cl)cc2)n1          HepG2         Inhibition            29
8  O=C(Nc1ccc(-c2cccc(-c3nc4cc(F)ccc4[nH]3)c2)cc1)Nc1ccc(Cl)c(Cl)c1          HepG2         Inhibition            68

# assay system HepG2: give Inhibition of CN1CCN(CCCN(Cc2cccc(-c3ccc(CNCc4ccc5c(c4)OCO5)cc3)c2)C(=O)CCC2CCCC2)CC1.O=C(O)C(F)(F)F
91

# assay system HepG2: give Inhibition of COc1c(C2=CCN(CCCCNC(=O)c3ccc(-c4ccc(C#N)cc4)cc3)CC2)c(C)cc2c1C(C)(C)CCC2(C)C
18

# assay system HepG2: give Inhibition of COc1ccc(C2(CNCC(O)c3cccc([N+](=O)[O-])c3)CCCC2)cc1OC (configuration not stated)
10

# assay system HepG2: give Inhibition of Cc1onc(-c2c(Cl)cccc2Cl)c1C(=O)N1CCc2cc3nccc(N4CCN5CCC[C@H]5C4)c3cc21
3

# assay system HepG2: give Inhibition of CCCc1cn2c3c(cc(C(=O)N[C@@H](Cc4ccccc4)[C@H](O)CNC4CCCCC4)cc13)N(CC)S(=O)(=O)CC2.O=CO
2

# assay system HepG2: give Inhibition of CSc1ccc(NC(=O)Nc2cc(C)nc3ccccc23)cc1
7

# assay system HepG2: give Inhibition of CCOC(=O)c1ccc(NCc2ccccn2)cc1
0

# assay system HepG2: give Inhibition of O=C(Nc1ccc(O)c(-c2nc3ccccc3[nH]2)c1)c1ccc([N+](=O)[O-])cc1
0

# assay system HepG2: give Inhibition of CCOC(=O)c1ccc(-c2cnoc2-c2cc(CC)c(OC)cc2O)o1
12

# assay system HepG2: give Inhibition of O=C(O)C(F)(F)F.O=S(=O)(NCCN1CCCC1)c1cccc(-c2cccc(CNCc3ccccc3)c2)c1
32

# assay system HepG2: give Inhibition of CCN(CC)CCN(Cc1ccc(-c2ccc(C(F)(F)F)cc2)cc1)C(=O)Cn1c(CCc2c(F)ccc(F)c2F)nc(=O)c2ccccc21.O=C(O)C(O)C(O)C(=O)O
44
